# Target Entity: T1, tumor susceptibility gene 101 protein UEV domain (TSG101 UEV) (human, UniProt Q99816 2-145)
# T1 sequence (looked up): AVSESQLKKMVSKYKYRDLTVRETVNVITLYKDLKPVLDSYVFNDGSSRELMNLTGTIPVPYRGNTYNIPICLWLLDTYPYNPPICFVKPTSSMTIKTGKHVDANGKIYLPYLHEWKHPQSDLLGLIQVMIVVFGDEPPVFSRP
# Condition Details: both partners purified
No end group written: not given here. *: point of attachment. FITC = O=C1OC2(c3ccc(O)cc3Oc3cc(O)ccc32)c2ccc(NC(=S)*)cc21
Measured Parameter: pKd
The value called pKd is obtained by taking minus log10 of the concentration in mol/L.

Recorded results for 5 binders are shown here.
- Binder: "TPEPVVPTAPELRPSTY [MDC1 1280-1295 (Human)]"
  Measured Number: 4.55
- Binder: "QSIAREPSAPSIPTPAY [PDCD6IP 711-727 (Human)]"
  Measured Number: 3.82
- Binder: "NLKLTEPTAPMIHNYM [Nsp4 127-142 (BAV)]"
  Measured Number: 4.19
- Binder: "VDEEKGLYPNLKLTEPTAPMIHNYM [Nsp4 118-142 (BAV)]"
  Measured Number: 4.14
- Binder: "{FITC}-GLIPTAPPAD [FITC - gag 453-462 (HIV2)]"
  Measured Number: 5.51

Item under review: MRRVTVPTAPPAYADIGYPM [VP40 1-20 (SEBOV)] . Reported pKd? 4.91
